Where do these numbers come from? They come from patent US20170369590A1.

Biological target: human epidermal growth factor receptor 2 (HER2), membrane-bound on cells (human, UniProt P04626 23-1255)
Experiment: FACS binding; AU565 cells
Measured EC50 of individual entries
A number alone suffices; assume µg/mL.

Worked set:
binder="HuMab 127 (antibody, V domains shown) VH: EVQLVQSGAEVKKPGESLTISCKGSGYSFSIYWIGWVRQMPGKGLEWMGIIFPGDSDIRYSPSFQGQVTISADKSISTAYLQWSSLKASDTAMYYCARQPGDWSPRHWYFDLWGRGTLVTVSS VL: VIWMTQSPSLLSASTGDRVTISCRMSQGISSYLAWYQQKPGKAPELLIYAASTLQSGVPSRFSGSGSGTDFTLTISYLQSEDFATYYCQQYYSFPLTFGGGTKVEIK" unit=µg/mL result_number=2.29
binder="HuMab 050 (antibody, V domains shown) VH: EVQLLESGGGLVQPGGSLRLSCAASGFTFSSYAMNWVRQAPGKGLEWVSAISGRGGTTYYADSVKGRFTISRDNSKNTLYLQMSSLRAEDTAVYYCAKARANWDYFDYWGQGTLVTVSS VL: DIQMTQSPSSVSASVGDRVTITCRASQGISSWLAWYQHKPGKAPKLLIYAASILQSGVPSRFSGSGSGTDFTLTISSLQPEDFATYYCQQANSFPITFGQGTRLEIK" unit=µg/mL result_number=0.722
binder="HuMab 129 (antibody, V domains shown) VH: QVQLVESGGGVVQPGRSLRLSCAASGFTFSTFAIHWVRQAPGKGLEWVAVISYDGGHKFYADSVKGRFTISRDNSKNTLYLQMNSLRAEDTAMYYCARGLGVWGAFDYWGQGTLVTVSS VL: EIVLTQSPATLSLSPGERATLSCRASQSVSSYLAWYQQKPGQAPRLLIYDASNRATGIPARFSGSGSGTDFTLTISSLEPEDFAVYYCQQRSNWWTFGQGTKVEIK" unit=µg/mL result_number=0.578

IN: Give the value of EC50 reported for the following: HuMab 132 (antibody, V domains shown) VH: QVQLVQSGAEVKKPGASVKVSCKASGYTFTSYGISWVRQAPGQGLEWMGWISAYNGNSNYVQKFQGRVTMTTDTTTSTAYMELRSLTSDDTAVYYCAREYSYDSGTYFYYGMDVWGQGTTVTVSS VL: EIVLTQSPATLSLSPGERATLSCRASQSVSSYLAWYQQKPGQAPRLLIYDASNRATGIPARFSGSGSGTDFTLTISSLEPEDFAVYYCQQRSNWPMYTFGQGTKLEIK
OUT: 0.911
